target: EGF receptor autophosphorylation in A431 cells (Homo sapiens, UniProt P00533); construct: A431 human epidermoid carcinoma cells were grown in 6-well plates; endogenous in cells; host or cells: A431 human epidermoid carcinoma cells; test: Irreversibility test: recovery of EGF receptor autophosphorylation after washout; type: cell-based; settings: A431 cells, 2 μM inhibitor, EGFR autophosphorylation
Sequence (P00533 25-1210): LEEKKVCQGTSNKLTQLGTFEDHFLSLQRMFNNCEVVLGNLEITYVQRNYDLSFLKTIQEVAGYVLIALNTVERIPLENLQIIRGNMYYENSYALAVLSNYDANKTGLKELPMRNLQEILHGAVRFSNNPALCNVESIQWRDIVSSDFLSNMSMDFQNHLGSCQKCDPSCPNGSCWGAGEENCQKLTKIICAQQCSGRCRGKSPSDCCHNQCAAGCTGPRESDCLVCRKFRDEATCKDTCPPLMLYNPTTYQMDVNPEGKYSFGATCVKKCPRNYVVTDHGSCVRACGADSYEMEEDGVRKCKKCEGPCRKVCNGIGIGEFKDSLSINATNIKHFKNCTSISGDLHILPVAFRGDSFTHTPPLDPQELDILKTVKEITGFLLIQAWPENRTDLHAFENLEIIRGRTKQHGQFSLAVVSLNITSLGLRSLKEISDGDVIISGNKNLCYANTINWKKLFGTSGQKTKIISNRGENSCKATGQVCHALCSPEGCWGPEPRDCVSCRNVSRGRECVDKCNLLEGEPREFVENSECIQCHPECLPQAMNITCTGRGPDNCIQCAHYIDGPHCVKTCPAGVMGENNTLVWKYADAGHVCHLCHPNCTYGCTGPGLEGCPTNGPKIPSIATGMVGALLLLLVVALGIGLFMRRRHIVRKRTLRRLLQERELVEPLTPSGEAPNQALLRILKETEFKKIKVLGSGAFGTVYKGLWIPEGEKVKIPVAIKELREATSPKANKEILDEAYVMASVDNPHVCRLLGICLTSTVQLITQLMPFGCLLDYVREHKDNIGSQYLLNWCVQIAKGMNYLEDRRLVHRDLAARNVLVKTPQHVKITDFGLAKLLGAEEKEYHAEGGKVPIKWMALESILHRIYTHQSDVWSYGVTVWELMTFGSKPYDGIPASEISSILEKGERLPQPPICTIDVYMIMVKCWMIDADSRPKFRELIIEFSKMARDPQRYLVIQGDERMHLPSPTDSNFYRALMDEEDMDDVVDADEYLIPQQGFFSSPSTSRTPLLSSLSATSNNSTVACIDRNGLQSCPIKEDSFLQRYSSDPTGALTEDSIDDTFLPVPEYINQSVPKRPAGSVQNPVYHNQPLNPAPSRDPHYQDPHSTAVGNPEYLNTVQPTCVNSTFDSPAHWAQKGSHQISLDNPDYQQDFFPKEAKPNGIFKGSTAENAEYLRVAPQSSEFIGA
recorded.metric: % Control After 2-Hour Incubation (%)

INSERT INTO measurements (molecule_smiles, recorded_metric, unit_label, reported_result) VALUES
  ('C=CS(=O)(=O)Nc1ccc2ncnc(Nc3cccc(Br)c3)c2c1', '% Control After 2-Hour Incubation', '%', 0),
  ('C=CC(=O)Nc1ccc2ncnc(N(C)C)c2c1', '% Control After 2-Hour Incubation', '%', 85),
  ('C=CC(=O)Nc1ccc2ncnc(Nc3cccc(Br)c3)c2n1', '% Control After 2-Hour Incubation', '%', 0),
  ('C=CC(=O)Nc1ccc2c(Nc3cccc(Cl)c3)ncnc2c1', '% Control After 2-Hour Incubation', '%', 0),
  ('C=CC(=O)Nc1ccc2c(Nc3cccc(C)c3)ncnc2c1', '% Control After 2-Hour Incubation', '%', 1);

* * *

biological target: EGF receptor autophosphorylation in A431 cells (Homo sapiens); construct: A431 human epidermoid carcinoma cells were grown in 6-well plates; endogenous in cells; host or cells: A431 human epidermoid carcinoma cells; assay: Autophosphorylation assay in A431 cells; assay type: cell-based; conditions: EGF-stimulated EGFR autophosphorylation in A431 cells
pIC50: −log10 of the molar value.
recorded.metric: pIC50

INSERT INTO measurements (compound, recorded_metric, value_relation_sign, reported_result) VALUES
  ('C=CC(=O)Nc1cc2c(Nc3cccc(C)c3)ncnc2cc1OCCCN1CCOCC1 [Example 22]', 'pIC50', '=', 7.57),
  ('C=CC(=O)Nc1ccc2c(Nc3cccc(Cl)c3)ncnc2c1 [Example 14]', 'pIC50', '=', 7.28),
  ('C=CC(=O)Nc1ccc2c(Nc3cccc(Br)c3)ncnc2c1 [Example 3]', 'pIC50', '=', 7.85),
  ('C=CC(=O)Nc1ccc2ncnc(Nc3cccc(C)c3)c2c1 [Example 19]', 'pIC50', '=', 8.33),
  ('C=CC(=O)Nc1ccc2ncnc(Nc3cccc(Br)c3)c2n1 [Example 41]', 'pIC50', '=', 8.25),
  ('C=CC(=O)Nc1ccc2ncnc(Nc3cccc(C(F)(F)F)c3)c2c1 [Example 20]', 'pIC50', '=', 8.35),
  ('C=CC(=O)Nc1ccc2c(c1)sc1c(Nc3cccc(Br)c3)ncnc12 [Example 44]', 'pIC50', '=', 6.49),
  ('C=CS(=O)(=O)Nc1ccc2c(Nc3cccc(Br)c3)ncnc2c1 [Example 16]', 'pIC50', '=', 5.61),
  ('CC(=O)N(c1cccc(Br)c1)c1ncnc2ccc(N3C(=O)C=CC3=O)cc12 [Example 58]', 'pIC50', '<', 6.30),
  ('C=CC(=O)Nc1ccc2sc3c(Nc4cccc(Br)c4)ncnc3c2c1 [Example 42]', 'pIC50', '=', 6.76),
  ('C=CC(=O)Nc1cc2c(Nc3cccc(C)c3)ncnc2cn1 [Example 37]', 'pIC50', '=', 8.08);

* * *

target: EGF receptor autophosphorylation in A431 cells (Homo sapiens, UniProt P00533); construct: A431 human epidermoid carcinoma cells were grown in 6-well plates; endogenous in cells; host or cells: A431 human epidermoid carcinoma cells; experiment: Irreversibility test: recovery of EGF receptor autophosphorylation after washout; format: cell-based; settings: A431 cells, 2 μM inhibitor, washed, 8 hours drug-free
recorded.metric: % Control After 8 Hours in Drug-Free Media Incubation (%)

INSERT INTO results (molecule, unit_label, reported_result) VALUES
  ('C=CC(=O)Nc1ccc2c(c1)sc1c(Nc3cccc(Br)c3)ncnc12 [Example 44]', '%', 42),
  ('C=CC(=O)Nc1ccc2c(Nc3cccc(Br)c3)ncnc2c1 [Example 3]', '%', 13),
  ('C=CC(=O)Nc1cccc2c1sc1c(Nc3cccc(Br)c3)ncnc12 [Example 43]', '%', 0),
  ('CC(=O)N(c1cccc(Br)c1)c1ncnc2ccc(N3C(=O)C=CC3=O)cc12 [Example 58]', '%', 95),
  ('C=CC(=O)N(CCCN1CCOCC1)c1ccc2c(Nc3cccc(Br)c3)ncnc2c1 [Example 4]', '%', 98),
  ('C#CC(=O)Nc1cc2c(Nc3cccc(Br)c3)ncnc2cn1 [Example 53]', '%', 0),
  ('C=CC(=O)Nc1ccc2c(Nc3cccc(Cl)c3)ncnc2c1 [Example 14]', '%', 50),
  ('C=CS(=O)(=O)Nc1ccc2c(Nc3cccc(Br)c3)ncnc2c1 [Example 16]', '%', 85),
  ('C=CC(=O)Nc1cc2c(Nc3cccc(Br)c3)ncnc2cc1OCCCCN(C)C [Example 26]', '%', 0),
  ('C=CC(=O)Nc1cc2c(Nc3cccc(C)c3)ncnc2cc1OCCCN1CCN(C)CC1 [Example 23]', '%', 0),
  ('C=CC(=O)Nc1ccc2ncnc(N(C)C)c2c1 [Example 12]', '%', 100),
  ('C=CC(=O)Nc1cc2c(Nc3cccc(C)c3)ncnc2cn1 [Example 37]', '%', 0),
  ('C=CC(=O)Nc1cc2c(Nc3cccc(C)c3)ncnc2cc1OCCCN1CCOCC1 [Example 22]', '%', 0),
  ('C=CC(=O)Nc1ccc2ncnc(Nc3cccc(Br)c3)c2n1 [Example 41]', '%', 0),
  ('C=CC(=O)Nc1ccc2ncnc(Nc3cccc(C(F)(F)F)c3)c2c1 [Example 20]', '%', 0),
  ('C=CC(=O)Nc1ccc2ncnc(Nc3cccc(C)c3)c2c1 [Example 19]', '%', 0),
  ('C=CS(=O)(=O)Nc1ccc2ncnc(Nc3cccc(Br)c3)c2c1 [Example 30]', '%', 0),
  ('C=CC(=O)Nc1ccc2sc3c(Nc4cccc(Br)c4)ncnc3c2c1 [Example 42]', '%', 50),
  ('CC=CC(=O)Nc1ccc2c(Nc3cccc(Br)c3)ncnc2c1 [Example 9]', '%', 99);

* * *

biological target: EGF receptor autophosphorylation in A431 cells (Homo sapiens); construct: A431 human epidermoid carcinoma cells were grown in 6-well plates; endogenous in cells; host or cells: A431 human epidermoid carcinoma cells; assay: Irreversibility test: recovery of EGF receptor autophosphorylation after washout; type: cell-based; settings: A431 cells, 2 μM inhibitor, EGFR autophosphorylation
Some compounds, each annotated with its measured % Control After 2-Hour Incubation.
recorded.metric: % Control After 2-Hour Incubation (%)

INSERT INTO measurements (molecule_smiles, reported_result) VALUES
  ('C=CC(=O)Nc1cc2ncnc(Nc3cccc(Br)c3)c2cn1', 0),
  ('CC=CC(=O)Nc1ccc2c(Nc3cccc(Br)c3)ncnc2c1', 0),
  ('C=CC(=O)Nc1cc2c(Nc3cccc(C)c3)ncnc2cn1', 0),
  ('C=CC(=O)Nc1cc2c(Nc3cccc(Br)c3)ncnc2cc1OCCCCN(C)C', 0),
  ('O=C(/C=C/Cl)Nc1cc2c(Nc3cccc(Br)c3)ncnc2cn1', 0),
  ('C=CC(=O)N(CCCN1CCOCC1)c1ccc2c(Nc3cccc(Br)c3)ncnc2c1', 55),
  ('C=CS(=O)(=O)Nc1ccc2c(Nc3cccc(Br)c3)ncnc2c1', 30),
  ('C=CC(=O)Nc1cc2c(Nc3cccc(C)c3)ncnc2cc1OCCCN1CCN(C)CC1', 0),
  ('C=CC(=O)Nc1cccc2c1sc1c(Nc3cccc(Br)c3)ncnc12', 0),
  ('C=CC(=O)Nc1ccc2c(Nc3cccc(Br)c3)ncnc2c1', 1),
  ('C=CC(=O)Nc1cc2c(Nc3cccc(C)c3)ncnc2cc1OCCCN1CCOCC1', 0),
  ('C=C(C)C(=O)Nc1ccc2c(Nc3cccc(Br)c3)ncnc2c1', 0),
  ('C=CC(=O)Nc1ccc2ncnc(Nc3cccc(Cl)c3)c2c1', 0),
  ('C=CC(=O)Nc1ccc2ncnc(Nc3cccc(C(F)(F)F)c3)c2c1', 0),
  ('C=CC(=O)Nc1ccc2sc3c(Nc4cccc(Br)c4)ncnc3c2c1', 12),
  ('CC(=O)N(c1cccc(Br)c1)c1ncnc2ccc(N3C(=O)C=CC3=O)cc12', 81),
  ('C#CC(=O)Nc1cc2c(Nc3cccc(Br)c3)ncnc2cn1', 0),
  ('C=CC(=O)Nc1ccc2c(c1)sc1c(Nc3cccc(Br)c3)ncnc12', 13),
  ('C=CC(=O)Nc1ccc2ncnc(Nc3cccc(C)c3)c2c1', 0);

* * *

target: EGF receptor tyrosine kinase (Homo sapiens, UniProt P00533); assay: Tyrosine kinase assay, isolated EGF receptor tyrosine kinase; assay type: biochemical; settings: isolated EGFR kinase; read-out: EGFR Tyrosine Kinase IC50
pIC50: −log10 of the molar value.
Threshold check on pIC50: at or above 8 gives Yes, strictly below gives No.

INSERT INTO results (molecule_smiles, label) VALUES
  ('C=CC(=O)Nc1cccc2c1sc1c(Nc3cccc(Br)c3)ncnc12', 'Yes'),
  ('C=CC(=O)Nc1cc2c(Nc3cccc(C)c3)ncnc2cn1', 'Yes'),
  ('CCOC(=O)C=CC(=O)Nc1ccc2c(Nc3cccc(Br)c3)ncnc2c1', 'No'),
  ('CC(=O)N(c1cccc(Br)c1)c1ncnc2ccc(N3C(=O)C=CC3=O)cc12', 'No'),
  ('C=CC(=O)Nc1ccc2ncnc(Nc3cccc(Br)c3)c2n1', 'Yes'),
  ('C=CC(=O)Nc1cc2c(Nc3cccc(C)c3)ncnc2cc1OCCCN1CCOCC1', 'Yes'),
  ('C=CC(=O)Nc1ccc2ncnc(Nc3cccc(C)c3)c2c1', 'Yes'),
  ('C=CC(=O)Nc1cc2c(Nc3cccc(C)c3)ncnc2cc1OCCCN1CCN(C)CC1', 'Yes'),
  ('C=CC(=O)Nc1ccc2sc3c(Nc4cccc(Br)c4)ncnc3c2c1', 'No'),
  ('C=CC(=O)N(CCCN1CCOCC1)c1ccc2c(Nc3cccc(Br)c3)ncnc2c1', 'No'),
  ('C#CC(=O)Nc1cc2c(Nc3cccc(Br)c3)ncnc2cn1', 'Yes'),
  ('C=CC(=O)Nc1ccc2c(Nc3cccc(Cl)c3)ncnc2c1', 'Yes');
